test system: RARg homodimer (NR concentration 270 nM); assay: PBM binding z-score (relative to random genomic background probes); higher = stronger binding; sequences stand for … in GC…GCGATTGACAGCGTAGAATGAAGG

{"columns": ["sequence.input", "subject.of.test", "PBM binding z-score"],
 "data": [
  ["ACTATTAGTTGGGACGAGGGCAACCGATAGGTTG", "RARg homodimer (NR concentration 270 nM)", 0.82],
  ["CTACCAAGTTGAACAAGGTCGTTGATTACTATTC", "RARg homodimer (NR concentration 270 nM)", 0.929],
  ["AGTCAAAGTTCCTCTAGGTAACGTAAGATATGCT", "RARg homodimer (NR concentration 270 nM)", 0.491],
  ["ACTTACGGGTCAGCGAGGTTATAGCACGCGTATA", "RARg homodimer (NR concentration 270 nM)", 4.61],
  ["TCTATTAGTTGAAGGGCATCCGACGAGTCCGTTT", "RARg homodimer (NR concentration 270 nM)", 0.361],
  ["CCTTACGGGTCAAGGGTATAGCACGGGTGGTACG", "RARg homodimer (NR concentration 270 nM)", 4.86],
  ["TATGCTAGGTCAGTTGGTCAGCTAACGAGCTGCC", "RARg homodimer (NR concentration 270 nM)", 3.34],
  ["ACTAGCCGGCCAAGTTTGGGTCACTCAAACAAAG", "RARg homodimer (NR concentration 270 nM)", 1.48],
  ["CGTCCAGGGTCAATGCTAGGTCAGTGAAAGCATT", "RARg homodimer (NR concentration 270 nM)", 5.63],
  ["CGTCCAAGGTCAAAGGTCAGTGATGAGATGACGG", "RARg homodimer (NR concentration 270 nM)", 7.8],
  ["CGTCCAAGGTCATAGGAAGTCAGTGAAGACAGAT", "RARg homodimer (NR concentration 270 nM)", 5.7],
  ["TAGCCTAGGTCTTGGGCCAGTATACCACGCGAAC", "RARg homodimer (NR concentration 270 nM)", -0.198]
]}
